Data origin: patent US20030144310A1

subject-of-test: rNPFF-1 (Rattus norvegicus)
Construct: expressed in transfected cells
Sequence (Q9EP86 whole entry): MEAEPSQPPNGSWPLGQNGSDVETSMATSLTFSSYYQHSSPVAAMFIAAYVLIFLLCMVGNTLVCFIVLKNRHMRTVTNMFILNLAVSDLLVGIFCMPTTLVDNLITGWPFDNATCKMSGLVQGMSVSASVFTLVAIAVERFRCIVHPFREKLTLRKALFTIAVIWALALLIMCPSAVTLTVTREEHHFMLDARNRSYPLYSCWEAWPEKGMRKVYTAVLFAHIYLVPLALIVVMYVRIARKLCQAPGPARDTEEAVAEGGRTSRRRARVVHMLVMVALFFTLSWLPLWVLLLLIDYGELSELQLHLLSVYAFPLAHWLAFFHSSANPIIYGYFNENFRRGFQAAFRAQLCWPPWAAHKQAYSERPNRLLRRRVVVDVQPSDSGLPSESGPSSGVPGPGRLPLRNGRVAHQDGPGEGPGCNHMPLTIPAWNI
procedure-summary: Radioligand binding assay, competitive displacement of [125I]1DMeNPFF at cloned NPFF receptors
condition-parameters: cloned rat receptor
assay-metric: log10 of Ki (log10 of the value in nM)
On a log10 scale: recorded Ki, unit nM.

The molecule N=C(N)NCCC[C@@H](NS(=O)(=O)c1cccc2ccccc12)C(=O)N[C@@H](Cc1ccccc1)C(N)=O showed log10 of Ki equal to 1.66

log10 of Ki recorded for this molecule, N=C(N)NCCC[C@H](NS(=O)(=O)c1cc(Cl)ccc1Cl)C(=O)N[C@@H](Cc1ccccc1)C(N)=O , is 2.53

For record N=C(N)NCCC[C@H](NS(=O)(=O)c1ccc(F)cc1)C(=O)N[C@H](Cc1ccccc1)C(N)=O the listed log10 of Ki is 2.66

Record summary for N=C(N)NCCC[C@H](NS(=O)(=O)c1ccccc1[N+](=O)[O-])C(=O)N[C@@H](Cc1ccccc1)C(N)=O : reported log10 of Ki = 2.73

Record summary for N=C(N)NCCC[C@H](NS(=O)(=O)c1cc(Cl)sc1Cl)C(=O)N[C@@H](Cc1ccccc1)C(N)=O : reported log10 of Ki = 3.29

Looking up COc1ccc(S(=O)(=O)N[C@@H](CCCNC(=N)N)C(=O)N[C@@H](Cc2ccccc2)C(N)=O)cc1OC , I see its log10 of Ki listed as 2.66

Input N=C(N)NCCC[C@H](NS(=O)(=O)c1ccc2ccccc2c1)C(=O)N[C@@H](Cc1ccccc1)C(N)=O . Output log10 of Ki: 2.50
